The values you see were collected from the supplement of paper PMC10065799.

# phosphorylation enrichment per record follows
System: AncSZ
Procedure Text: phosphorylation enrichment, bacterial display (enrichment ratio); higher = better substrate or ligand; peptides without Tyr show the background;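 further: 11-residue human phosphosite peptides and single-mutation variants displayed on the E. coli surface, counted by deep sequencing, each peptide's frequency after selection divided by its frequency in the unselected input library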;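 further: frequency after pTyr selection over input frequency; kinase dosed for 20-30% of maximal phosphorylation in three min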

Construct Sequence | phosphorylation enrichment
LNERHYGGLTG [PGAM2_Y92] | 0.679
TRSFDYTEGGD [FGF7_Y58_M59T_YF] | 1.23
RLNWIYYKDQT [RS1_Y165] | 1.53
CTTVHYNFMCN [TP53_Y234_I232V_YF] | 0.769
ENPLDYGSAWA [AR_Y395] | 0.992

====

# phosphorylation enrichment per record follows
Target Under Test: Fyn (UniProt P06241)
Sequence (P06241 whole entry, looked up): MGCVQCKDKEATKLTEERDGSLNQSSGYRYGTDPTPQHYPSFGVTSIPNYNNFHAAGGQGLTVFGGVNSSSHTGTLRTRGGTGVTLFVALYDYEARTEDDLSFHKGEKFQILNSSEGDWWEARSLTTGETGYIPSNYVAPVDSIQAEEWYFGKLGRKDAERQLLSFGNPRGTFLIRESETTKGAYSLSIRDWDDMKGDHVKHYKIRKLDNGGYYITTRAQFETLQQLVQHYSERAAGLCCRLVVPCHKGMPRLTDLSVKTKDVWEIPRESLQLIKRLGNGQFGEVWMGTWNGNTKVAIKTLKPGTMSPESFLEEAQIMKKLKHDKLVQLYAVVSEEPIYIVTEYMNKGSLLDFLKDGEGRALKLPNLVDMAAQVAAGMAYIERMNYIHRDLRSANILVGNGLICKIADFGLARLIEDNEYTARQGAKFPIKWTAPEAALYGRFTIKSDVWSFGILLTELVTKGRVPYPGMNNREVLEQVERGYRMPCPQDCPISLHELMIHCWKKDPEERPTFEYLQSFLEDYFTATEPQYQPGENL
Procedure Text: phosphorylation enrichment, bacterial display (enrichment ratio); higher = better substrate or ligand; peptides without Tyr show the background

Construct Sequence | phosphorylation enrichment
MASTSYDFCRV [BST2_Y6_YF] | 0.486
CNTIHYNYMCN [TP53_Y234_T230N] | 0.413
GHLFAYDWISI [BEST1_Y227_YF] | 0.894
HTVVSYAEVRA [CLOCK_Y378] | 0.897
GAAMLYFPSVS [GPR143_Y177_YF] | 0.445
AGLEDYDRLRP [RAC3_Y64_Q61L] | 0.544
NFRPGYNNFFN [USH2A_Y467_YF] | 0.522
MEIHAYHKLLE [LMNA_Y376_R377H] | 0.445
TNLVPYPRIHF [TUBA1A_Y262] | 0.378
AIIEEYLHLSD [EIF4G1_Y1253_N1257S] | 0.635
DVLVEYQGEGR [GNS_Y416] | 0.504
GIVEDYRPPLF [ACVRL1_Y421_F425L_YF] | 0.458
RCLKDYGEFEV [GINS1_Y156] | 0.677
GDGRFYMKEAI [PGM1_Y66] | 0.45
VVAHQYSFAPD [TNS3_Y601] | 0.542
FSQETYYRVSN [ABCD1_Y180_Q178E] | 1.77
PSDPSYEDMRE [BMPR1A_Y467] | 0.848
CSKRFYQLTKL [AR_Y858_R855K] | 0.454
PVQAAYPKVVA [HBB_Y131_Q132P] | 0.42
KTTILYKLKLG [ARF1_Y35] | 0.358
